# Tested on: NCI-H358 (K-Ras G12C)
# experiment-notes: CellTiter-Glo cell viability assay, 5-day treatment
# Format: cell-based
# condition-set: Homo sapiens, NCI-H358, 120 h, 5-day treatment; read-out: H358 Cell Viability assay data (K-Ras G12C, IC50)
pIC50: −log10 of the molar value.
Provide the recorded pIC50 for the entries that follow.

These solved cases illustrate the format of a correct answer.
molecule	pIC50
CCn1c(-c2cccnc2[C@H](C)OC)c2c3cc(ccc31)-c1csc(n1)C[C@H](NC(=O)[C@H](C(C)C)N(C)C(=O)N1CC(C(C)(C)O)C1)C(=O)N1CCC[C@H](N1)C(=O)OCC(C)(C)C2 (atropisomer, axis not shown)	> 8.00
CCn1c(-c2cccnc2[C@H](C)OC)c2c3cc(ccc31)-c1cc(O)cc(c1)C[C@H](NC(=O)[C@H](C(C)C)N(C)C(=O)C1COC1)C(=O)N1CCC[C@H](N1)C(=O)OCC(C)(C)C2	6.00 to 7.00
CCn1c(-c2cccnc2[C@H](C)OC)c2c3cc(ccc31)-c1csc(n1)C[C@H](NC(=O)[C@H](C(C)C)N(C)C(=O)N1CC[C@H](N(C)C)C1)C(=O)N1CCC[C@H](N1)C(=O)OCC(C)(C)C2	7.00 to 8.00
CCn1c(-c2cccnc2[C@H](C)OC)c2c3cc(ccc31)-c1csc(n1)C[C@H](NC(=O)[C@H](C(C)C)N(C)C(=O)N1CCCOCC1)C(=O)N1CCC[C@H](N1)C(=O)OCC(C)(C)C2 (atropisomer, axis not shown)	> 8.00
CCn1c(-c2cccnc2[C@H](C)OC)c2c3cc(ccc31)-c1cc(O)cc(c1)C[C@H](NC(=O)[C@H](C(C)C)N(C)C(=O)C1CN(C)C1)C(=O)N1CCC[C@H](N1)C(=O)OCC(C)(C)C2 (atropisomer, axis not shown)	6.00 to 7.00

For every item below, please supply its pIC50.
1. CCn1c(-c2cnccc2COC)c2c3cc(ccc31)-c1cc(O)cc(c1)C[C@H](NC(=O)[C@H](C(C)C)N(C)C(=O)N1CC(OC)C1)C(=O)N1CCC[C@H](N1)C(=O)OCC(C)(C)C2
2. CCn1c(-c2cnccc2COC)c2c3cc(ccc31)-c1cc(O)cc(c1)C[C@H](NC(=O)C1CCCC1C(F)F)C(=O)N1CCC[C@H](N1)C(=O)OCC(C)(C)C2 (some centres unmarked)
3. CCn1c(-c2cccnc2[C@H](C)OC)c2c3cc(ccc31)-c1csc(n1)C[C@H](NC(=O)[C@H](C(C)C)N(C)C(=O)N1C3CC1CS(=O)(=O)C3)C(=O)N1CCC[C@H](N1)C(=O)OCC(C)(C)C2

["6.00 to 7.00", "5.00 to 6.00", "6.00 to 7.00"]

----------
What IC50 was measured for each of the following?
# target-entity: KRAS WT (Homo sapiens, UniProt P01116+P62937)
# Sequence (P01116 1-169 isoform P01116-2 limits assumed): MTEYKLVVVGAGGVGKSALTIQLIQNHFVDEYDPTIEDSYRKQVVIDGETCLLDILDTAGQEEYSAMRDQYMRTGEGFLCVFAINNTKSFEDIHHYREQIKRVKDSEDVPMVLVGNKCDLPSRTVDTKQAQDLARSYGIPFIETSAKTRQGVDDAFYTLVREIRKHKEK
# Sequence (P62937 whole entry): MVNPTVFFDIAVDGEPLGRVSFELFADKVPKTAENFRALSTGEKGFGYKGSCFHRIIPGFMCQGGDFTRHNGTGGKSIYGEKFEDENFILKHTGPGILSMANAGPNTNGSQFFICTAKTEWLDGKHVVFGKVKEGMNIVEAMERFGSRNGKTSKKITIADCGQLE
# experiment-notes: Ras-Raf disruption / FRET / MOA assay (BRAF RBD)
# Assay type: biochemical
# condition-set: KRAS WT FRET data IC50, Ras-Raf disruption, with Cyclophilin A

compound	target-entity	IC50
CCn1c(-c2cccnc2[C@H](C)OC)c2c3cc(ccc31)-c1cc(O)cc(c1)C[C@H](NC(=O)[C@H](C(C)C)N(C)C(=O)CNC(=O)[C@@H]1N[C@@H]1C1CC1)C(=O)N1CCC[C@H](N1)C(=O)OCC(C)(C)C2	KRAS WT (Homo sapiens, UniProt P01116+P62937)	10 to 100 nM
CCn1c(-c2cccnc2[C@H](C)OC)c2c3cc(ccc31)-c1cc(O)cc(c1)C[C@H](NC(=O)[C@H](C(C)C)N(C)C(=O)CN(C)C(=O)[C@@H]1CN1CCO)C(=O)N1CCC[C@H](N1)C(=O)OCC(C)(C)C2 (stereo partly shown)	KRAS WT (Homo sapiens, UniProt P01116+P62937)	10 to 100 nM
CCn1c(-c2cccnc2[C@H](C)OC)c2c3cc(ccc31)-c1cc(O)cc(c1)C[C@H](NC(=O)[C@H](C1CCCC1)N(C)C(=O)CN(C)C(=O)[C@@H]1N[C@@H]1C1(F)CC1)C(=O)N1CCC[C@H](N1)C(=O)OCC(C)(C)C2	KRAS WT (Homo sapiens, UniProt P01116+P62937)	10 to 100 nM
CCn1c(-c2cccnc2[C@H](C)OC)c2c3cc(ccc31)-c1cc(O)cc(c1)C[C@H](NC(=O)[C@H](C(C)C)N(C)C(=O)CN(C)C(=O)[C@@H]1CN1CCCN1CCCC1=O)C(=O)N1CCC[C@H](N1)C(=O)OCC(C)(C)C2 (stereo partly shown)	KRAS WT (Homo sapiens, UniProt P01116+P62937)	10 to 100 nM
CCn1c(-c2cnccc2COC)c2c3cc(ccc31)-c1cc(O)cc(c1)C[C@H](NC(=O)[C@H](C(C)C)N(C)C(=O)CN(C)C(=O)[C@@H]1N[C@@H]1C(=O)OC)C(=O)N1CCC[C@H](N1)C(=O)OCC(C)(C)C2	KRAS WT (Homo sapiens, UniProt P01116+P62937)	100 to 1000 nM

// for each compound below, give its IC50
1. CCn1c(-c2cccnc2[C@H](C)OC)c2c3cc(ccc31)-c1cc(O)cc(c1)C[C@H](NC(=O)[C@H](C(C)C)N(C)C(=O)CN(C)C(=O)[C@@H]1CN1CCCC#N)C(=O)N1CCC[C@H](N1)C(=O)OCC(C)(C)C2 (stereo partly shown)
2. CCn1c(-c2cccnc2[C@H](C)OC)c2c3cc(ccc31)-c1cc(O)cc(c1)C[C@H](NC(=O)[C@H](C1CCCC1)N(C)C(=O)CN(C)C(=O)[C@H]1N[C@H]1C1(F)CC1)C(=O)N1CCC[C@H](N1)C(=O)OCC(C)(C)C2
3. CCn1c(-c2cccnc2[C@H](C)OC)c2c3cc(ccc31)-c1cc(O)cc(c1)C[C@H](NC(=O)[C@H](C(C)C)N1CC[C@@H](NC(=O)[C@H]3CN3)C1=O)C(=O)N1CCC[C@H](N1)C(=O)OCC(C)(C)C2
4. CCn1c(-c2cccnc2[C@H](C)OC)c2c3cc(ccc31)-c1cc(O)cc(c1)C[C@H](NC(=O)[C@H](C(C)C)N(C)C(=O)CN(C)C(=O)[C@H]1CN1CC1(C)COC1)C(=O)N1CCC[C@H](N1)C(=O)OCC(C)(C)C2 (stereo partly shown)

1: 10 to 100 nM; 2: 10 to 100 nM; 3: 10 to 100 nM; 4: 10 to 100 nM
